Record type: pKi measurement. Applies to: Endoplasmic reticulum aminopeptidase 1 (Homo sapiens)
pKi: −log10 of the molar value.

NC(CNCCc1ccccc1)P(=O)(O)O (centres undefined) | < 3.60

Fill in: pKi of NCC(N)P(=O)(O)O (centres undefined) is ___
< 3.60

Suppose we examine the molecule CNCC(N)P(=O)(O)O (centres undefined) ; what pKi value has been reported?
< 3.60

Give its pKi value. Item: NC(CCc1ccccc1)P(=O)(O)CC(Cc1ccccc1)C(=O)O (centres undefined)
4.72
